For each of the compounds below, state its pIC50.
# system: human GPR68 (Homo sapiens, UniProt Q15743)
# Construct: encoding full-length human GPR68 (uniprot ID: Q15743); expressed in transfected cells; host or cells: HEK293T
# Sequence (Q15743 whole entry): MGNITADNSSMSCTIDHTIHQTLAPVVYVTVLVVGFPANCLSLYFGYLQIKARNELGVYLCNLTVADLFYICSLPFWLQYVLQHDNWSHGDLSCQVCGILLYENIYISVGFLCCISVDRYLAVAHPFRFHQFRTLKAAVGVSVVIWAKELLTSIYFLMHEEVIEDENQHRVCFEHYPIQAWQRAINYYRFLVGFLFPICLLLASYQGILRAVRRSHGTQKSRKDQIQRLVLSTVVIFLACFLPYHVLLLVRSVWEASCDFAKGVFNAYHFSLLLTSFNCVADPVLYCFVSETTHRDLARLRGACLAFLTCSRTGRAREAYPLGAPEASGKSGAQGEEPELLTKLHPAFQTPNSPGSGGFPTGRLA
# testName: GPR68 Biochemical Assay (Promega GloSensor cAMP assay, GPR68 antagonism)
# Format: cell-based
# testSettings: HEK293T cells transiently expressing hGPR68, antagonism of pH 5.5 stimulated cAMP, 15 min, read-out: hGPR68 IC50
pIC50: −log10 of the molar value.

>>> assayresult("Cc1nn2c(C(=O)NC3CC(F)(F)C3)c(-c3cn[nH]c3)cnc2c1C(N)=O")
"5.30 to 6.30"

Give pIC50 for each listed item.
1. COCc1nn2c(C(=O)NC3COc4ccccc43)ccnc2c1C(N)=O (stereo not drawn)
2. COCc1nn2c(C(=O)N[C@@H]3CCCc4ccccc43)ccnc2c1C(N)=O

Reply text:
["> 7.30", "> 7.30"]

----------
For each of the compounds below, state its pIC50.
# system: human GPR68 (Homo sapiens, UniProt Q15743)
# Construct: encoding full-length human GPR68 (uniprot ID: Q15743); expressed in transfected cells; host or cells: HEK293T
# testName: GPR68 Biochemical Assay (Promega GloSensor cAMP assay, GPR68 antagonism)
# Assay type: cell-based
# testSettings: HEK293T cells transiently expressing hGPR68, antagonism of pH 5.5 stimulated cAMP, 15 min, read-out: hGPR68 IC50
pIC50: −log10 of the molar value.

// known answers, use as guide
>>> assayresult("COCc1nn2c(C(=O)NC3Cc4ccccc4C3)cc(C)nc2c1C(N)=O [Compound 227]")
"> 7.30"
>>> assayresult("NC(=O)c1cnn2c(C(=O)NC3CNc4ccccc4C3)ccnc12 (stereo not drawn) [Compound 5]")
"5.30 to 6.30"

Read the next record carefully.
Inquiry: Any idea what pIC50 came out for COCc1nn2c(C(=O)NC3COc4ccc(F)cc4C3)ccnc2c1C(N)=O (stereo not drawn) [Compound 196] on human GPR68 (Homo sapiens, UniProt Q15743)?
Reply text: > 7.30

----------
For each of the compounds below, state its pIC50.
# system: human GPR68 (Homo sapiens, UniProt Q15743)
# Construct: encoding full-length human GPR68 (uniprot ID: Q15743); expressed in transfected cells; host or cells: HEK293T
# testName: GPR68 Biochemical Assay (Promega GloSensor cAMP assay, GPR68 antagonism)
# Assay type: cell-based
# testSettings: HEK293T cells transiently expressing hGPR68, antagonism of pH 5.5 stimulated cAMP, 15 min, read-out: hGPR68 IC50
pIC50: −log10 of the molar value.

// known answers, use as guide
>>> assayresult("COCc1nn2c(C(=O)NC3(c4ccc(F)cc4)CC3)ccnc2c1C(N)=O")
"6.30 to 7.30"
>>> assayresult("CO[C@H]1C[C@@H](NC(=O)c2ccnc3c(C(N)=O)cnn23)C1")
"4.30 to 5.30"
>>> assayresult("COCc1nn2c(C(=O)NCc3ccc(F)cc3F)ccnc2c1C(N)=O")
"> 7.30"
>>> assayresult("Cc1nn2c(C(=O)NC3Cc4ccncc4C3)ccnc2c1C(N)=O (stereo not drawn)")
"4.30 to 5.30"
>>> assayresult("CNCc1nn2c(C(=O)NC3Cc4ccccc4C3)ccnc2c1C(N)=O")
"5.30 to 6.30"

Read the next record carefully.
Inquiry: Given the compound Cc1cccc2c1CC(NC(=O)c1ccnc3c(C(N)=O)cnn13)C2 (stereo not drawn) , what is its reported pIC50?
Reply text: 6.30 to 7.30

----------
# system: human GPR68 (Homo sapiens)
# Construct: encoding full-length human GPR68 (uniprot ID: Q15743); expressed in transfected cells; host or cells: HEK293T
# testName: GPR68 Biochemical Assay (Promega GloSensor cAMP assay, GPR68 antagonism)
# Format: cell-based
# testSettings: HEK293T cells transiently expressing hGPR68, antagonism of pH 5.5 stimulated cAMP, 15 min, read-out: hGPR68 IC50
readoutKind: IC50

// known answers, use as guide
>>> assayresult("COCc1nn2c(C(=O)N[C@H]3CC[C@@H](C)CC3)ccnc2c1C(N)=O")
"500 to 5000 nM"
>>> assayresult("CN1CC(c2nn3c(C(=O)NC4Cc5ccccc5C4)ccnc3c2C(N)=O)C1")
"50000 to 100000 nM"
>>> assayresult("COCc1nc2c(C(=O)NC3Cc4ccccc4C3)ccnn2c1C(N)=O")
"< 50 nM"
>>> assayresult("COCc1nn2c(C(=O)Nc3cc4ccccc4n3C)ccnc2c1C(N)=O")
"< 50 nM"
>>> assayresult("NC(=O)c1c(C2CC2)nn2c(C(=O)N[C@H]3CCS(=O)(=O)c4ccccc43)ccnc12")
"< 50 nM"
>>> assayresult("COCc1nn2c(C(=O)NC3CC(F)(F)c4ccc(F)cc43)ccnc2c1C(N)=O (centres unmarked)")
"< 50 nM"

Give IC50 for each listed item.
1. CC(COc1ccc(C(C)(C)C)cc1)NC(=O)c1ccnc2c(C(N)=O)cnn12 (centres unmarked)
2. COCc1nc2c(C(=O)NC3CC(F)(F)C3)ccnn2c1C(N)=O
3. COCc1nc2c(C(=O)NC3Cc4cccnc4C3)ccnn2c1C(N)=O (centres unmarked)
4. COCc1nn2c(C(=O)NCc3ccccc3)ccnc2c1C(N)=O

Reply text:
1: 5000 to 50000 nM; 2: < 50 nM; 3: 50 to 500 nM; 4: 50 to 500 nM

Inquiry: Given the compound Cc1nn2c(C(=O)NC3CC(F)(F)C3)ccnc2c1C(N)=O , what is its reported IC50?
Reply text: 50 to 500 nM

----------
# system: human GPR68 (Homo sapiens, UniProt Q15743)
# Construct: encoding full-length human GPR68 (uniprot ID: Q15743); expressed in transfected cells; host or cells: HEK293T
# testName: GPR68 Biochemical Assay (Promega GloSensor cAMP assay, GPR68 antagonism)
# Assay type: cell-based
# testSettings: HEK293T cells transiently expressing hGPR68, antagonism of pH 5.5 stimulated cAMP, 15 min, read-out: hGPR68 IC50
# Description: GPR68 antagonism was determined using the Promega GloSensor™ CAMP assay (F. I. Wang et al., Methods 2021, S1046-2023 (21) 00249-8). […] Cell density was determined by automated cell counting (Countess, Invitrogen) and adjusted to 6×10^6 cells/20 mL and transferred to 15 cm dishes (Thermo Fisher, Cat 130183) for overnight incubation at 37° C. and 5% CO2. […]
pIC50: −log10 of the molar value.
For each of the compounds below, state its pIC50.

// known answers, use as guide
>>> assayresult("NC(=O)c1c(C2CCCO2)nn2c(C(=O)N[C@H]3C[C@@H](OC(F)(F)F)C3)ccnc12 (stereo partly drawn)")
"6.30 to 7.30"
>>> assayresult("COc1ccc2c(c1)CC(NC(=O)c1ccnc3c(C(N)=O)cnn13)C2 (stereo not drawn)")
"4.00 to 4.30"
>>> assayresult("COc1ccc2[nH]c(C(C)NC(=O)c3ccnc4c(C(N)=O)cnn34)nc2c1 (stereo not drawn)")
"4.30 to 5.30"
>>> assayresult("COCc1nn2c(C(=O)NC3(C)CC4(CC(F)(F)C4)C3)ccnc2c1C(N)=O")
"5.30 to 6.30"
>>> assayresult("CC(C)c1nn2c(C(=O)NC3CCS(=O)(=O)c4ccccc43)ccnc2c1C(N)=O (stereo not drawn)")
"> 7.30"
>>> assayresult("NC(=O)c1cnn2c(C(=O)NC3Cc4cccc(Oc5ccc(Cl)cc5)c4C3)ccnc12 (stereo not drawn)")
"4.00 to 4.30"

Give pIC50 for each listed item.
1. COCc1nn2c(C(=O)NC3CCc4ccc(F)cc4C3)ccnc2c1C(N)=O (stereo not drawn)
2. COCc1nn2c(C(=O)NC3COc4cc(F)cc(F)c43)ccnc2c1C(N)=O (stereo not drawn)

Reply text:
> 7.30
> 7.30

Give pIC50 for each listed item.
1. NC(=O)c1c(COCF)nn2c(C(=O)N[C@H]3C[C@@H](OC(F)(F)F)C3)ccnc12
2. COCc1nn2c(C(=O)NC3CCC(F)(F)c4ccccc43)ccnc2c1C(N)=O (single isomer, unassigned) [Compound 175]

Reply text:
1: > 7.30; 2: > 7.30

Give pIC50 for each listed item.
1. CCCc1nn2c(C(=O)N[C@H]3C[C@@H](OC(F)(F)F)C3)ccnc2c1C(N)=O
2. NC(=O)c1c(-c2ncco2)nn2c(C(=O)NC3CC(F)(F)C3)ccnc12
3. COCc1nn2c(C(=O)NC3Cc4cccnc4C3)ccnc2c1C(N)=O (single isomer, unassigned) [Compound 147]
4. COCc1nn2c(C(=O)NC3CC(F)(F)c4ccccc43)ccnc2c1C(N)=O (single isomer, unassigned) [Compound 173]
5. Cc1ccc(-c2ccncc2)cc1NC(=O)c1ccnc2c(C(N)=O)cnn12
6. COCc1nc2c(C(=O)N[C@H]3CCOc4cc(F)ccc43)ccnn2c1C(N)=O
7. COCc1nn2c(C(=O)NCC3CCC(F)(F)CC3)ccnc2c1C(N)=O

Reply text:
["> 7.30", "5.30 to 6.30", "> 7.30", "> 7.30", "5.30 to 6.30", "> 7.30", "> 7.30"]

Give pIC50 for each listed item.
1. COCc1nn2c(C(=O)NC3Cc4ccccc4C3)ccnc2c1C(N)=O
2. COCc1nn2c(C(=O)NC3Cc4ccccc4C3(F)F)ccnc2c1C(N)=O (stereo not drawn)
3. COCc1nc2c(C(=O)NCc3ccc(F)cc3)ccnn2c1C(N)=O
4. NC(=O)c1c(OCC2CC2)nn2c(C(=O)NC3Cc4ccccc4C3)ccnc12
5. CC(C)c1nn2c(C(=O)NC3CS(=O)(=O)c4ccccc43)ccnc2c1C(N)=O (stereo not drawn)
6. COCc1nn2c(C(=O)N[C@H]3CCS(=O)(=O)c4ccccc43)ccnc2c1C(N)=O (single isomer, unassigned)

Reply text:
1. > 7.30
2. > 7.30
3. > 7.30
4. > 7.30
5. > 7.30
6. > 7.30

Inquiry: Any idea what pIC50 came out for COCc1nn2c(C(=O)N[C@H]3C[C@H](C)C3)ccnc2c1C(N)=O on human GPR68 (Homo sapiens, UniProt Q15743)?
Reply text: 6.30 to 7.30
